System: Nakaseomyces glabratus
Experiment: Antifungal activity against Candida glabrata
Format: functional
Collected MIC values appear next to each entry.

[
  {
    "smiles string": "O=c1[nH]c2cc(C(F)(F)F)ccc2nc1CBr",
    "unit abbreviation": "µg/mL",
    "prefix operator": ">",
    "MIC": 125
  },
  {
    "smiles string": "O=c1[nH]c2ccc(C(F)(F)F)cc2nc1CBr",
    "unit abbreviation": "µg/mL",
    "prefix operator": "=",
    "MIC": 62.5
  },
  {
    "smiles string": "O=c1[nH]c2cc([N+](=O)[O-])ccc2nc1CBr",
    "unit abbreviation": "µg/mL",
    "prefix operator": "=",
    "MIC": 15.6
  },
  {
    "smiles string": "O=c1[nH]c2ccc(C(F)(F)F)cc2nc1C(F)(F)F",
    "unit abbreviation": "µg/mL",
    "prefix operator": "=",
    "MIC": 250
  },
  {
    "smiles string": "O=c1[nH]c2cc(C(F)(F)F)ccc2nc1C(F)(F)F",
    "unit abbreviation": "µg/mL",
    "prefix operator": "=",
    "MIC": 125
  },
  {
    "smiles string": "O=c1[nH]c2cc(F)c(F)cc2nc1CBr",
    "unit abbreviation": "µg/mL",
    "prefix operator": "=",
    "MIC": 125
  }
]

* * *

Tested on: WI-38
Experiment: Antiproliferative activity against human WI-38 cells
Format: functional, cell-based

[
  {
    "smiles string": "NNC(=O)/C=C1/Nc2ccc(Br)cc2NC1=O",
    "unit abbreviation": "µM",
    "IC50": 227
  },
  {
    "smiles string": "COC(=O)CCc1nc2ccc(Cl)cc2[nH]c1=O",
    "unit abbreviation": "µM",
    "IC50": 242
  },
  {
    "smiles string": "COC(=O)CCc1nc2ccc(Br)cc2[nH]c1=O",
    "unit abbreviation": "µM",
    "IC50": 142
  }
]

* * *

Test system: HepG2
Test: Antiproliferative activity against human HepG2 cells
Type: functional, cell-based
In this section we review reported IC50 values for a set of compounds.

[
  {
    "smiles string": "COC(=O)CCc1nc2ccc(Cl)cc2[nH]c1=O",
    "unit abbreviation": "µM",
    "IC50": 46.2
  },
  {
    "smiles string": "NNC(=O)/C=C1/Nc2ccc(Br)cc2NC1=O",
    "unit abbreviation": "µM",
    "IC50": 18.6
  },
  {
    "smiles string": "O=C(Cn1c(=O)c2nncn2c2ccccc21)Nc1ccc(C(=O)Nc2cc(Cl)ccc2Cl)cc1",
    "unit abbreviation": "µM",
    "IC50": 8.4
  },
  {
    "smiles string": "COC(=O)CCc1nc2ccc(Br)cc2[nH]c1=O",
    "unit abbreviation": "µM",
    "IC50": 15.6
  },
  {
    "smiles string": "Cc1nn(-c2ccccc2)c(SCCCO)c1/C=N/Nc1nc2ccccc2[nH]c1=O",
    "unit abbreviation": "µM",
    "IC50": 23.4
  },
  {
    "smiles string": "Cc1ccc(O)c(NC(=O)c2ccc(NC(=O)Cn3c(=O)c4nncn4c4ccccc43)cc2)c1",
    "unit abbreviation": "µM",
    "IC50": 7.8
  },
  {
    "smiles string": "O=C(Cn1c(=O)c2nncn2c2ccccc21)Nc1ccc(C(=O)Nc2ccc(Cl)cc2)cc1",
    "unit abbreviation": "µM",
    "IC50": 4.1
  }
]

* * *

Test system: Pichia kudriavzevii
Test: Antifungal activity against Candida krusei
Format: functional

[
  {
    "smiles string": "O=c1[nH]c2ccc(C(F)(F)F)cc2nc1C(F)(F)F",
    "assayed system": "Pichia kudriavzevii",
    "unit abbreviation": "µg/mL",
    "MIC": 250
  },
  {
    "smiles string": "O=c1[nH]c2cc(C(F)(F)F)ccc2nc1C(F)(F)F",
    "assayed system": "Pichia kudriavzevii",
    "unit abbreviation": "µg/mL",
    "MIC": 250
  },
  {
    "smiles string": "O=c1[nH]c2cc(C(F)(F)F)ccc2nc1CBr",
    "assayed system": "Pichia kudriavzevii",
    "unit abbreviation": "µg/mL",
    "MIC": 125
  },
  {
    "smiles string": "O=c1[nH]c2ccc(C(F)(F)F)cc2nc1CBr",
    "assayed system": "Pichia kudriavzevii",
    "unit abbreviation": "µg/mL",
    "MIC": 62.5
  },
  {
    "smiles string": "O=c1[nH]c2cc([N+](=O)[O-])ccc2nc1CBr",
    "assayed system": "Pichia kudriavzevii",
    "unit abbreviation": "µg/mL",
    "MIC": 62.5
  },
  {
    "smiles string": "O=c1[nH]c2cc(F)c(F)cc2nc1CBr",
    "assayed system": "Pichia kudriavzevii",
    "unit abbreviation": "µg/mL",
    "MIC": 125
  }
]

* * *

Measured pIC50 of individual entries
Experiment: Inhibition of cGMP-dependent 3',5'-cyclic phosphodiesterase (unknown origin)
Set-up: species or system Homo sapiens
pIC50: −log10 of the molar value.
readout: pIC50

[
  {
    "smiles string": "CCc1nccn1-c1ncnc2c1nc(O)c1cnc(CC)n12",
    "readout": "pIC50",
    "observed result": 4.85
  },
  {
    "smiles string": "CCc1nc(C)c2c(O)nc3ccccc3n12",
    "readout": "pIC50",
    "observed result": 6.40
  },
  {
    "smiles string": "Oc1nc2cccnc2n2ccnc12",
    "readout": "pIC50",
    "observed result": 4.57
  },
  {
    "smiles string": "CCc1ncc2c(O)nc3cccnc3n12",
    "readout": "pIC50",
    "observed result": 5.15
  }
]

* * *

Test: Displacement of [3H]AMPA from NMDA receptor (unknown origin)
Assay type: protein-complex assay, Homo sapiens
Reported IC50 is given for each of the following molecules.

[
  {
    "molecule": "O=C(NCc1cc(Br)cc2[nH]c(=O)c(=O)[nH]c12)c1ccsc1",
    "unit abbreviation": "µM",
    "IC50": 2
  },
  {
    "molecule": "O=C(O)CC1CCc2cc(Br)cc3[nH]c(=O)c(=O)n1c23 (stereo not given)",
    "unit abbreviation": "µM",
    "IC50": 4.6
  },
  {
    "molecule": "O=C(NCc1cc(Br)cc2nc(O)c(O)nc12)c1cccs1",
    "unit abbreviation": "µM",
    "IC50": 1.6
  },
  {
    "molecule": "O=C(CC1CCc2cc(Br)cc3[nH]c(=O)c(=O)n1c23)Nc1ccccc1 (stereo not given)",
    "unit abbreviation": "µM",
    "IC50": 4.6
  },
  {
    "molecule": "O=C(Cc1ccsc1)NCc1cc(Br)cc2nc(O)c(O)nc12",
    "unit abbreviation": "µM",
    "IC50": 11.3
  }
]

* * *

Experiment: Partial agonist activity at GABAA/benzodiazepine receptor complex (unknown origin) measured by [35S]TBPS based functional assay
Set-up: species or system Homo sapiens

[
  {
    "smiles string": "CC(C)n1c(=O)c2c(-c3ccc(F)cc3)ncn2c2cccc(Cl)c21",
    "EC50": "2.04 nM"
  }
]

* * *

Target: Human immunodeficiency virus type 1 reverse transcriptase (Human immunodeficiency virus 1) (UniProt Q72547)
Assay: Inhibition of HIV1 reverse transcriptase at 100 uM relative to control

[
  {
    "smiles string": "CC(C)COC(=O)N1c2ccccc2NC(=O)[C@H]1C",
    "unit abbreviation": "%",
    "inhibition": 64
  },
  {
    "smiles string": "CC(C)COC(=O)N1CC(=O)Nc2ccccc21",
    "unit abbreviation": "%",
    "inhibition": 46
  },
  {
    "smiles string": "CCC(=O)N1CC(=O)Nc2ccccc21",
    "unit abbreviation": "%",
    "inhibition": 99
  },
  {
    "smiles string": "CC(=O)N1CC(=O)Nc2ccccc21",
    "unit abbreviation": "%",
    "inhibition": 56
  },
  {
    "smiles string": "CC(C)COC(=O)N1c2ccccc2NC(=O)[C@H]1CC(C)C",
    "unit abbreviation": "%",
    "inhibition": 51
  },
  {
    "smiles string": "CC(C)Cc1nc2ccccc2[nH]c1=O",
    "unit abbreviation": "%",
    "inhibition": 73
  }
]

* * *

Molecular target: Glutamate receptor ionotropic AMPA (Homo sapiens, UniProt P42261+P42262+P42263+P48058)
Assay: Agonist activity at AMPA receptor (unknown origin)
Format: protein-complex assay
pEC50: −log10 of the molar value.
readout: pEC50

[
  {
    "smiles string": "N[C@@H](Cn1c(=O)c(=O)[nH]c2ccccc21)C(=O)O",
    "observed result": 5.52
  }
]
